# Tested on: SNB-19
# protocol_description: NCI tumour cell line growth inhibition, 48 h
The source made the active and inactive calls. Cut-off read from the data, not from the text of the source: active = GI50 up to about 1.1 µM and inactive = higher.
Outcome codes: active, inactive

{"columns": ["compound", "measurement_target", "class"],
 "data": [
  ["O=C1CSc2nnc(CCCCCCCCc3nnc4n3NC(=O)CS4)n2N1", "SNB-19", "inactive"],
  ["CC1=CC(=O)[C@@H](O)[C@]2(C)[C@H]3[C@@]4(O)OC[C@@]35[C@@H](C[C@@H]12)OC(=O)C(OC(=O)CC1=CCCC1)[C@H]5[C@@H](C)[C@H]4O (stereo partly specified)", "SNB-19", "active"],
  ["COc1cc2cc3c4c(cc(OC)c(OC)c4c2cc1OC)CCN3", "SNB-19", "inactive"],
  ["O=C(C=P(c1ccccc1)(c1ccccc1)c1ccccc1)c1ccc(-c2cccs2)cc1", "SNB-19", "inactive"],
  ["Cc1cccc(C)c1NC(=O)C(=O)Cc1nc2ccccc2s1", "SNB-19", "inactive"],
  ["O=C(COc1ccccc1)NS(=O)(=O)c1ccccc1", "SNB-19", "inactive"]
]}

---

# Tested on: 786-0
# protocol_description: NCI tumour cell line growth inhibition, 48 h
Active and inactive are the calls of the source. Cut-off read from the data, not from the text of the source: active = GI50 up to about 1.1 µM and inactive = higher.
Outcome codes: True = active, False = inactive

{"columns": ["compound", "class"],
 "data": [
  ["NCCCCNC1(c2cc3ccccc3s2)CCCCC1", "False"],
  ["CC(=O)OCC1OC(n2c(C)c(/N=N/c3ccc(Cl)cc3)c(C)c(C#N)c2=S)C(OC(C)=O)C(OC(C)=O)C1OC(C)=O (stereo not given)", "False"],
  ["COc1cc(C2C3=C(COC3=O)Oc3cc4c(cc32)OCO4)cc(OC)c1O (stereo not given)", "True"],
  ["S=C1NC2=C(COc3ccccc32)C(c2ccc(Cl)cc2)N1 (stereo not given)", "False"],
  ["C[C@H](C(=O)O)C(=O)NC(=O)N(Cc1ccccc1)N=O", "False"]
]}

---

# System: SF-268
# protocol_description: NCI tumour cell line growth inhibition, 48 h
The source made the active and inactive calls. Rule as the data show it: active = GI50 up to about 1.1 µM and inactive = higher.
Outcome codes: active, inactive

{"columns": ["compound", "class"],
 "data": [
  ["CCOC(=O)C(=O)C1C(=O)Nc2ccccc21 (centres undefined)", "inactive"],
  ["CCOc1cc2oc(C)cc(=O)c2c(OC)c1/C=N/c1ccc(Cn2c(C)nc3ccccc32)cc1", "inactive"],
  ["CC1=NN(c2cccc(Cl)c2)C2(C1=Cc1ccccc1)C(Cl)C(=O)N2c1nc2ccccc2s1 (centres undefined)", "inactive"],
  ["CCOC(=O)C1=C(C)OC(=O)[C@@]2(OC)C=C(Cl)[C@@]12C", "inactive"],
  ["Cc1ccc(S(=O)(=O)NC(=O)NCC(=O)NCC(=O)O)cc1", "inactive"],
  ["CC(=O)OCC1OC(n2c(C)c(/N=N/c3ccc(Cl)cc3)c(C)c(C#N)c2=S)C(OC(C)=O)C(OC(C)=O)C1OC(C)=O (centres undefined)", "inactive"],
  ["CC(=O)NNc1nc(C)c(C(/C=C/c2ccc(Cl)cc2)=N\\N=C(N)N)s1", "inactive"],
  ["O=C(O)c1ccc(Nc2nc3ccccc3nc2-c2cccs2)cc1", "inactive"],
  ["CC(C)(C)[Si](C)(C)OCC1OC(n2cnc3c(=O)[nH]c(N)nc32)C(O[Si](C)(C)C(C)(C)C)C1O[Si](C)(C)C(C)(C)C (centres undefined)", "inactive"],
  ["O=C1/C(=C/c2ccc([N+](=O)[O-])cc2)Oc2cc(O)ccc21", "inactive"],
  ["COC(=O)[C@H]1[C@H](C(=O)OC)[C@@H](C)c2c(ccc3c2[nH]c2ccccc23)[C@@H]1C", "inactive"],
  ["C[C@]12CC[C@@H]3c4cc(I)c(O)cc4CC[C@H]3[C@@H]1CC[C@@H]2O", "inactive"],
  ["CC([C@H]1CCC2C3CCC4CC5(CC[C@]4(C)C3CC[C@@]21C)c1ccccc1C(=O)N5C)N(C)C (some centres undefined)", "inactive"],
  ["COc1cc(C2C3=C(COC3=O)Oc3cc4c(cc32)OCO4)cc(OC)c1O (centres undefined)", "active"],
  ["CN(C)CCCN1c2ccccc2Sc2ccc3ccccc3c21", "inactive"],
  ["CCOc1ccccc1NC(=O)CCc1n[nH]c(=S)o1", "inactive"],
  ["Clc1ccc(N/N=C(\\c2ccccc2)c2ccccn2)nc1", "active"],
  ["CN1CCCC2[C@@H]3CCC4=C(O)C(=O)CC[C@]4(C)C3CC[C@@]21C (some centres undefined)", "inactive"],
  ["C=C1CCC(CC[C@@H]2CC[C@]3(OC2)O[C@@]2(O)CC[C@]3(C)OC2(C)C)C(C)(C)[C@H]1C/C=C1/C(=O)OC[C@@H]1O (some centres undefined)", "inactive"]
]}

Where do these numbers come from? They come from ChEMBL document CHEMBL1201862.
